protocol-notes: Comparison of probe Cmax and AUC in DBS and plasma
Format: in vivo, human
recorded-conditions: human, capillary whole blood (DBS) versus venous plasma, oral
measure: blood plasma ratio

# return recorded blood plasma ratio for input CC(C(=O)O)c1ccc(-c2ccccc2)c(F)c1 (stereo not drawn) [Flurbiprofen, flurbiprofen]
~0.6

For the compound COc1ccc2[nH]c([S+]([O-])Cc3ncc(C)c(OC)c3C)nc2c1 (stereo not drawn) [Omeprazole, omeprazole] , report blood plasma ratio.
~0.6

Respond only with blood plasma ratio recorded for Cc1ncc2n1-c1ccc(Cl)cc1C(c1ccccc1F)=NC2 [Midazolam, midazolam]
~0.6

These data points were gathered from paper PMC4151019.
